Test: soluble on expression in E. coli; label from the status in PepcDB or PDB records
Endpoint: soluble on expression in E. coli

Reference set, count: 5
{"Residue string": "ATRDFLQRAEAAYKTDGGAAGLGQKAFVKMMQEVCELPSMVAYSLFKRLTGCEAGEEEGAAVPRDTFIKFWTGRGLVTAPPPKRAFDSLRPDGQDYLTFADFWPMMECVLRYHPGLEFLAETQEFQRKYAETVIHRIFYSLNKCGSGRLTFREFRSGELMDALYALDRENDINKILKFFSYEHFYVIYCKFWELDQDHDFQLDKTDLAHYSNCALSYVIVDRIFEEAPRKFKAGTPPGKMCYEDFVWFILSEEDKTTDTALTYWFRCVDLDGDGVIRPREMLYFYEEQLRRLEGWNQEPVQFEDLLCQLHDMLSPAKEGAFTLRDLKRTKPQSGLFFSSLFSLHKFVGFENRDPFAQRAEAAEFTGLSDWDKFAKIEYFRLASEDD", "soluble on expression in E. coli": "soluble"}
{"Residue string": "MSKLDLNALNELPKVDRILALAETNAELEKLDAEGRVAWALDNLPGEYVLSSSFGIQAAVSLHLVNQIRPDIPVILTDTGYLFPETYRFIDELTDKLKLNLKVYRATESAAWQEARYGKLWEQGVEGIEKYNDINKVEPMNRALKELNAQTWFAGLRREQSGSRANLPVLAIQRGVFKVLPIIDWDNRTIYQYLQKHGLKYHPLWDEGYLSVGDTHTTRKWEPGMAEEETRFFGLKRECGLHEGLEHHHHHH", "soluble on expression in E. coli": "soluble"}
{"Residue string": "MYFVDRSKIEKTLGFFEHQLALFDSQTDWQSEIGELALQRIGHLLIECILDTGNDMIDGFIMRDPGSYDDIMDILVDEKVVTEKEGDELKKLIAYRKTLVQQYLLADSGELYRLIKAHQTALQDFPKRIRSYLETELGPVSAFKLEHHHHHH", "soluble on expression in E. coli": "soluble"}
{"Residue string": "MGSDKIHHHHHHMSRRHYNLPPLTTLTAFEAAARHLSFKDAAKELSVTPGAVSHQVKALEGELGVALFRRKHRGVDLTVPGQTLYDTLAGSLTRISQSLQSIRDQSSAGVVTVGSTTAMAAMWLSPAVIRFWRDHPEININQVVRDRAFTTSAELDLYIWYGREKDQRLDQFPLYRDRLLPVAAPERAAELAGADLDVLASQRLIHLEGDDISWTKWHDWFRQLGYSGPVASGIRVNNYSIALQAARDGAGLTLGWERLISPLITQGDLAIIGPHVLPAPERFFLVSKPDEELTPSARLLRDWIIEEASQITDEPC", "soluble on expression in E. coli": "not soluble"}
{"Residue string": "MNTFQMRDKLKERLSHLDVDFKFNREEETLRIYRTDNNKGITIKLNAIVAKYEDKKEKIVDEIVYYVDEAIAQMADKTLESISSSQIMPVIRATSFDKKTKQGVPFIYDEHTAETAVYYAVDLGKSYRLIDESMLEDLKLTEQQIREMSLFNVRKLSNSYTTDEVKGNIFYFINSNDGYDASRILNTAFLNEIEAQCQGEMLVAVPHQDVLIIADIRNKTGYDVMAHLTMEFFTKGLVPITSLSFGYKQGHLEPIFILGKNNKQK", "soluble on expression in E. coli": "not soluble"}

Exam item: I have this sequence here, `MTQYVFEMGMTCNGCANAARKVLGKLGEDKIKIDDINVETKKITVTTDLPASDVLEALKKTGKEIKQLQ` , and I need its recorded soluble on expression in E. coli.
Marked response: not soluble

---

Assay: soluble on expression in E. coli; label from the status in PepcDB or PDB records
Endpoint: soluble on expression in E. coli

Reference set, count: 6
{"Residue string": "MTENAQDKARQAVETVVKSPELVEQILSDEYVQIMIARCFHSGPLPPPSDLAQYNDIISNGADRIMAMAEKEQAVRHETIRQDQTFNRRGQ", "soluble on expression in E. coli": "not soluble"}
{"Residue string": "MAHHHHHHMGFPAVPFVEDKNDAEILRDEADDEFASYFKEGRKPKILITTGEHPCFRTKLFVKEALWLFPNSIYRPRKKYNLKEITQFCINREFTDLIVVTDRLKEPYNLIISHLPEGPTAMFRVSNFMTHAQLKDPAPRTEHYPELIFKNFDTRLGRRINRLLECLFPATRDYEGRAVATFHNQRDYIFMRTHRYIFDSLDAVRIQEMGPRFTLRLLSLQSGTFDTQFGEYEWFRKKEHDDDKLEWYL", "soluble on expression in E. coli": "soluble"}
{"Residue string": "MGSDKIHHHHHHMSAFYDLYETPDPNDTGEKQPLHARIVPSGTYSKKDFIERVSRHQPFPHNIIEGVLGAVVDELAEALADGYIVELGELGHFSISLKCTHKVMTKKEIRAESIRFDNVHLRTSKEFKKKIKREIELERVENSNEKTHNAKISIEDRLQMLQEFLKKNGGITRIEYSRLTGLPRLKAIDDLNTFIKEGTLRKRGAGRTVFYVWKQKE", "soluble on expression in E. coli": "not soluble"}
{"Residue string": "MTWQPFYVGTGQAPAGAEEQVVLPPAPPWREFPRRSQHRQFVPPPRLAEAVNAALALRRPLLVTGPAGSGKSTVIEQVAAELALGDVLRWHITSRSSLAEALYRYDALGRIHAQRLEGPGGSDDIAPFLRMGPLGTALLPSARPRALLIDEIDKSDLDLPSDLLDVLERGEFEIPELARYGTDVVPVREHGGERTHLIARGRVQCAEFPFIVMTSNGDRDFPAAFLRRCIRFTMPLPTPETLLRVVEAHMGPEKAAADETGRLITVFLERLTAGESLAVDQLLNAVHLLTGDGAPGDDRRQAIAELILRELSHALEHHHHHH", "soluble on expression in E. coli": "not soluble"}
{"Residue string": "MATSAEVSQRVLAYLVEQLGVDVSFLRHNDRDRRATRLVAEWPPRLNIPDPDPLRLIYFADADPVFALCEHAKEPLVFRPEPATEDYQRLIEEARGVPVTSAAAVPLVSGEITTGLLGFIKFGDRKWHEAELNALMTIATLFAQVQARVAAEARLRYLADHDDLEHHHHHH", "soluble on expression in E. coli": "not soluble"}
{"Residue string": "MPYRRRQSTAPKSGAPKSVRSAAAGQSLDIDGIHLHLTRKPIKNLYLRIKPPSGRVEISAPMRMSESRIADFVKERHSWILAQQQRMAEAQRRSIMALNEGAGFENGGRGVAGASGHDGGVAGRPKTGDISRPGIGDAGPGQAGTNVQPYFDRSQIWTDERKRQAAAAINAALPQLLAKWGPVVGRQPTHITLRVMTSRWGSCTPRTGRIRLNLQLGLMEPQFLEYVLVHEMTHLWESGHGAGFQRRMTAYLPGWKTLRRDLNRRVVLLEHHHHHH", "soluble on expression in E. coli": "soluble"}

Next item in the queue.
Exam item: I have this sequence here, `EVEGDKTVPNNVANAPFAGTEPLAKKLGLTEVNSLNTAVAATSSFVQFNAIASHSTFASPSGTLADVNHHAEMQKENADFLMDNALSDVSDTTVLK` , and I need its recorded soluble on expression in E. coli.
Marked response: not soluble

---

Assay: soluble on expression in E. coli; label from the status in PepcDB or PDB records
Endpoint: soluble on expression in E. coli

Reference set, count: 6
{"Residue string": "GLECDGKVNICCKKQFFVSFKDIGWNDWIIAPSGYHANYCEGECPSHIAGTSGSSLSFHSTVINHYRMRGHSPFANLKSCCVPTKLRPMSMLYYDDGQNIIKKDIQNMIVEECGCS", "Endpoint": "soluble on expression in E. coli", "Observed measurement": "soluble"}
{"Residue string": "MVVIMLNYDDIKIIDEIYSEGYLFAQYGIYIKKKFKQKIFKIPVDIGLGCPHKKNGGCIFCPEMGRPISVKYCSAKIPLKEQIKKQMENQKKKGFKKFYIYFYPGTNTYAPAEKLKEIWDFSLSYKEVIGLSIGTRPDCLEKEKLDILAEYVENGYDIWIDLGVQSMHQKTLEILNRGHDVSDIIKAIKDCHKRGIKVCGHVILGLPGESWKEMMETAKILSLLEIEAVKIYPLVVVKGTKLEEMYW", "Endpoint": "soluble on expression in E. coli", "Observed measurement": "not soluble"}
{"Residue string": "MSLSSQPRFIHLRTHTDFSMIDSIVKVKPLVKACAANEMVAMGLTDFTNFCGVVSFYSEMLSSGMKPIIGADVKVKSPLCGDEYFDLTLLAKNNEGYRNITLLLSKAYQRGYNDLPYIDQDWLIEHRDGVIILSGGTQGDVGKKLLKENVAEIESAVAFYQEFFADHFYLALSRTGRPNEERYIQAALKLAERCDLPLVATNDVMFLNTEDFEAHEIRVAIHDGYTLDDPKRPKCYTSQQYFRSEEDMCKLFADEGHHHHHH", "Endpoint": "soluble on expression in E. coli", "Observed measurement": "soluble"}
{"Residue string": "HGPEGTVEIETVKLARSVFSKLHEICCSWVKDFPLRRRPQLYYETSIHAIKNMRRKMEDKHVCIPDFNMLFNLEDQEEQAYFAVFDGHGGVDAAIYASIHLHVNLVRQEMFPHDPAEALCRAFRVTDERFVQKAARESLRCGTTGVVTFIRGNMLHVAWVGDSQVMLVRKGQAVELMKPHKPDREDEKQRIEALGGCVVWFGAWRVNGSLSVSRAIGDAEHKPYICGDADSASTVLDGTEDYLILACDGFYDTVNPDEAVKVVSDHLKENNGDSSMVAHKLVASARDAGSSDNITVIVVFLRDMNKVRASSPSPL", "Endpoint": "soluble on expression in E. coli", "Observed measurement": "soluble"}
{"Residue string": "MAHHHHHHMRAIQTLFIHSDKRVFLFPNTSNRTKYPSLITFPKIVLYSTPEAKRYRCVQKYLSTDFSSCSDNPHEILGRILRVPQSRSSMRKMLFTIPGIDPIQGILNGSRVCNELIRIKDVTWNRPHLIHAFFDHLPVFRFFLRSLVTLHPRTHRLHIHLVRAIHDDSRRSFLFLSFIIVAHAWR", "Endpoint": "soluble on expression in E. coli", "Observed measurement": "not soluble"}
{"Residue string": "MHSMKLLVTGGMGFIGSNFIRYILEKHPDWEVINIDKLGYGSNPANLKDLEDDPRYTFVKGDVADYELVKELVRKVDGVVHLAAESHVDRSISSPEIFLHSNVIGTYTLLESIRRENPEVRFVHVSTDEVYGDILKGSFTENDRLMPSSPYSATKAASDMLVLGWTRTYNLNASITRCTNNYGPYQFPEKLIPKTIIRASLGLKIPIYGTGKNVRDWLYVEDHVRAIELVLLKGESREIYNISAGEEKTNLEVVKIILRLMGKGEELIELVEDRPGHDLRYSLDSWKITRDLKWRPKYTFDEGIKKTIDWYLKNEWWWKPLVDERILHPTPWKLKW", "Endpoint": "soluble on expression in E. coli", "Observed measurement": "soluble"}

Exam item: I have this sequence here, `GEEDLCAAFNVICDNVGKDWRRLARQLKVSDTKIDSIEDRYPRNLTERVRESLRIWKNTEKENATVAHLVGALRSCQMNLVADLVQEVQQARDLQNRSGAMSPMSWNSDASTSEASHHHHHH` , and I need its recorded soluble on expression in E. coli.
Marked response: soluble

Exam item: Try this sequence too: `MGSDKIHHHHHHMDVENIFRDVKLSKTEMTVLRFIQNDPEQCIRQGVRAVAEQCYSNPSSLVRLAKKLKFSGWLELVYFIKFNITMPKLDVTNDIDYMSVQPEEALTPLLASLNQQRILIHGSGFSQLIAQYIYNKFLVTGVNASLALWPDYEILEQKNAACFDSIWIISKSGRSSSALNWVKALEGKEINLVCFTGDYQSPLAQAADTAFIIHDPQKFDDDIYWSNPFFGYCILGFERLLKMWFTSLRSNS`
Marked response: not soluble

Exam item: Try this sequence too: `MYVTVTEAAYKKIMDTIPSEAKYIKLFYDNEGCGCVMSGIIDLVAVAEKDERDVDIESSTMNFIADRTKLVFMDDKLTVDWHEGGGTFQLKSPSQFYNPNMKLHVRVLEHHHHHH`
Marked response: soluble

Exam item: Try this sequence too: `MYSYKHPIYCANPVLSGQKIIELPPMNVPFSTYYEVYVTVQDHIPISSFVSMDLIMKNDNYSGGNFQVYSKDVSGILASHSNHFSPVTYSMQLQYEYKNWAEEDTQVRVYSDRLPPYWLPYCD`
Marked response: not soluble

Exam item: Try this sequence too: `MFHCPLCQHAAHARTSRYITDTTKERYHQCQNVNCSATFITYESVQRYIVKPGEVHVVRPHPLPSGQQIMWM`
Marked response: soluble

Exam item: Try this sequence too: `MSLTTMKEIAEQTGVSISTVSLVLNGRDEGRVNPALAKLVRNKATELGYKINPLARSLRTNKTRILGFISEEVATTPYAGGIILGAQDAASAYGYMLFTVSTDGKASEENEIATLKRYGVDGFFYSKMSNRIAHVPESLSDYPVVMVDATDYENKVPSVEPDEFMIGYDATIRLLQADCKRIAYVGCAENMIAQDGRLAGYCTALQEAGRAFNPSLVCNVMNDGPALRAVNKLFDDEHPDGFFCFNDARAWYVYECAARRGLTVGKDISVVGVDNHRVFAETLEPQLTTVELPHYEMGYWSACKLISMIEGKDVDTSSCPSARASLPPLDAPIPAKIHCALLEKDSVISEGHHHHHH`
Marked response: soluble

Exam item: Try this sequence too: `MGSDKIHHHHHHMIKRLKIKNFKSYRDSEFEFEKVSIVVGPNGSGKTNLVDAFSFLKQLIRPLSYPPYPFIRWGDYKNVVFMQDENLDISFEIDGEYKGKDYHYEISLNKLQIKKEIINFDSYSMERRGNVIRYENKEMTIPDNLSVFNLFFAQPFIIAYNLNFTLPPELLNFMTNFLNDVGVFRIVPQIAVSPVHFTFPEALDENGRGLVKVISNNLSRINETKQVYDFLVENNISLRPVFTEDGNIRLHFIEKSENNKELILLPASVPDGFIKMLTIIIAVYLLKMSTIIIDEIENSLHLKYIERLVDIMRYSDSQFIATTHSPLIIDFMDPFRNNNS`
Marked response: not soluble

These data points were gathered from the DeepSol protein solubility set.
